- Tested on: vasopressin-induced ST depression
- procedure-details: Preventive effect on vasopressin-induced ST depression (experimental model of angina pectoris)
- Type: in vivo, Male Donryu strain rats
- Set-up: key: +: Significantly different from vehicle control (P < 0.05); -: No significant difference
- conditions-used: 10 mg/kg p.o.; 5 hours following administration
- Experimental: (1) Preventive effect on vasopressin-induced ST depression (effect in experimental model of angina pectoris) The test was carried out according to the method of Hatano et al. [cf. Pharmacometrics, 19, 311-317 (1980)]. Male Donryu strain rats, weighing 130-180 g, were anesthetized with 60 mg/kg (i.p.) of sodium pentobarbital. Lead II electrocardiogram was recorded. […]
Counter-ions that a name gives are not always drawn.
property-measured: Preventive effect on ST depression, 5 hours

compound: Cc1ccc2c(c1)C(NC(=O)CCCN1CCN(c3ccc(F)cc3)CC1)c1ccccc1CS2 (stereo not shown)
result: +
//
compound: COc1ccc([C@@H]2Sc3ccccc3N(CCN(C)C)C(=O)[C@@H]2OC(C)=O)cc1 [Diltiazem hydrochloride, reference compound]
result: -
//
compound: O=C(CCCN1CCN(c2ccc(F)cc2)CC1)NC1c2ccccc2CSc2ccccc21 (stereo not shown)
result: +
//
compound: O=C(CCCN1CCN(c2ccc(F)cc2)CC1)NC1c2ccccc2C=Cc2ccccc21
result: +
